B1: DVL3 (parent)
chain: FPELGYSYGGGSASSQHSEGSRSS

Variants of: B1
Experiment: protein stability index of a GFP-peptide fusion (GPS, HEK-293T) (PSI 1-6); higher = more stable;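 note: lentivirally expressed fusions sorted by FACS into six bins by GFP to DsRed ratio, PSI derived from sequencing read proportions per bin multiplied by bin number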
Details: c terminus: a fixed tail appended
Measured attribute: protein stability index
Answer with a bare number; do not write a unit.

{"Mutant code": "E19V", "protein stability index": 2.52}
{"Mutant code": "A13M", "protein stability index": 2.98}
{"Mutant code": "S12L", "protein stability index": 2.81}
{"Mutant code": "Y6W", "protein stability index": 1.66}

Task: Reported protein stability index for S23W : what is it?
Output: 2.59

Task: Reported protein stability index for L4F : what is it?
Output: 3.16

Task: Reported protein stability index for S23F : what is it?
Output: 2.39

Task: Reported protein stability index for A13D : what is it?
Output: 2.77

Task: Reported protein stability index for S24W : what is it?
Output: 1.95

Task: Reported protein stability index for S18D : what is it?
Output: 3.7

Task: Reported protein stability index for G5H : what is it?
Output: 3.08

Task: Reported protein stability index for F1H : what is it?
Output: 4.96
